The origin of these recorded values is patent US9447093B2.

- TARGET OR SYSTEM: DYRK1A protein (Homo sapiens)
- Construct: the peptide phosphorylated by His-DYRK1A-ΔC is separated from the unphosphorylated peptide; His (N)
- EXPERIMENTAL DETAILS: DYRK1A activity assay (fluorescein peptide substrate, UFLC with fluorescence detection)
- CONDITION INFO: DYRK1A protein, ΔDYRK1A enzyme, 37° C.
Record form. Attribute: log10 IC50. Fill in for each entry.
Response schema: value (number) is log10 of IC50 in units of nM.

// returns reported log10 IC50 for input Oc1cccc(-c2cnc3[nH]cc(-c4cccc(O)c4)c3c2)c1
2.02

Query Oc1ccc(-c2cnc3[nH]cc(-c4ccccc4)c3c2)c(O)c1 next
2.19

Query Oc1ccc(O)c(-c2cnc3[nH]cc(-c4ccc(O)c(O)c4)c3c2)c1 next
1.59

Query c1ccc(-c2cnc3[nH]cc(-c4ccccc4)c3c2)cc1 next
3.87

Query Oc1ccc(-c2c[nH]c3ncc(-c4ccc(O)c(O)c4)cc23)cc1 next
0.48

Query Oc1ccc(-c2cnc3[nH]cc(-c4ccc(O)c(O)c4)c3c2)c(O)c1 next
1.16

Query Oc1ccc(-c2c[nH]c3ncc(-c4ccc(O)cc4O)cc23)cc1 next
1.07

Query Oc1ccc(-c2cnc3[nH]cc(-c4ccc(O)c(O)c4)c3c2)cc1O next
1.09

Query Oc1ccc(-c2cnc3[nH]cc(-c4ccc(O)c(F)c4)c3c2)cc1 next
0.97

Query COc1ccc(-c2c[nH]c3ncc(-c4ccc(O)cc4)cc23)cc1F next
1.62

----------
- System: GSKIII beta protein
- EXPERIMENTAL DETAILS: In vivo phosphorylation state of GSKIII beta in brain (slot-blot)
- CONDITION INFO: brain of TG animals (trisomy model for DYRK1A gene), intraperitoneal 1 mg/kg at t0 and t16 h, sacrifice t17-t18
- Description: To test in vivo the efficacy of these inhibitors, the effect of the compounds according to the invention on the phosphorylation state of two DYRK1A downstream targets in signaling pathways was measured: GSKIII beta protein (FIG. 1a) and CAMKII protein (FIG. 1b). These measurements were carried out in the brain of control animals (WT) and of animals of an animal model of trisomy for DYRK1A gene (TG). […]
OBSERVATION TYPE: correction of hyperphosphorylated GSKIIIbeta (pGSK/GSK ratio)

Oc1ccc(-c2cnc3[nH]cc(-c4ccc(O)cc4)c3c2)cc1: effective correction
Oc1ccc(-c2c[nH]c3ncc(-c4ccc(O)cc4O)cc23)cc1: effective correction
Oc1ccc(-c2cnc3[nH]cc(-c4ccc(O)c(O)c4)c3c2)cc1O: excessive correction
Oc1ccc(-c2cnc3[nH]cc(-c4ccccc4)c3c2)cc1: excessive correction
